# measurementNotes: in vivo
# testSettings: SD, rat
Positions of bridges follow the written chain, without caps; N, C: chain ends. Non-standard residues stand in square brackets, D forms with d. Residues, ends and D or L forms follow the SMILES beside them. *: point of attachment. Heptanoyl(5-Me) = CCC(C)CCCC(=O)*; Dab = NCC[C@H](N)C(=O)O
measurementKind: half-life (min)
All answers are understood in min, so give the number only.

Q. Could you share which half-life value was measured for CCC(C)CCCC(=O)N[C@@H](CCN)C(=O)N[C@H](C(=O)N[C@@H](CCN)C(=O)N[C@H]1CCNC(=O)[C@H]([C@@H](C)O)NC(=O)[C@H](CCN)NC(=O)[C@H](CCN)NC(=O)[C@H](CC(C)C)NC(=O)[C@@H](CC(C)C)NC(=O)[C@H](CCN)NC1=O)[C@@H](C)O (stereo partly drawn) ({Heptanoyl(5-Me)}-[Dab]T[Dab][Dab][Dab][dL]L[Dab][Dab]T; lactam 4-C) ?
A. 79.8
